system: Mus musculus; test: Ability to reverse electroconvulsive shock (ECS) induced amnesia in mice, at a dose of 5 mg/Kg administered perorally; type: functional
We use 10% as the dividing line for Reversal: on or above the line is YES, below is NO.

input: Determine whether this compound has Reversal no lower than 10%: CC12CCC(=O)N1C(=O)CC2
output: YES

input: Confirm if Reversal reported for the compound O=C1CCCCC2CCC(=O)N12 (stereo not drawn) is 10% or above.
output: YES

input: Threshold query (Reversal >= 10%) on CC1CC2CC(C)C(=O)N2C1=O (stereo not drawn)
output: NO

input: Please check the record CC(C)N(CCNC(=O)CCC1CCC(=O)N1)C(C)C (stereo not drawn) and state if its Reversal is at or above 10%.
output: YES

input: Check the entry O=C(O)CCC1CCCC(=O)N1 (stereo not drawn) : does Reversal equal or exceed 10%?
output: YES

input: Determine whether measured Reversal meets or exceeds 10% for O=C(CCC1CCC(=O)N1)NCc1ccccc1 (stereo not drawn)
output: NO

input: Please tell me: is the compound COC(=O)CCC1CCC(=O)N1 (stereo not drawn) at or over 10% in terms of Reversal?
output: YES
